# run_description: NCI Yeast Anticancer Drug Screen. Data for the rad50EPP+ strain (AID 151)
# stated_conditions: S. cerevisiae rad50 mutant strain, at 3.7 µM
Compounds without any hit were thinned out: in the full panel of roughly 79,000, 15% have a hit. Activity calls are given as the source filed them. Cut-off read from the data, not from the text of the source: active = growth inhibition above about 70%; inactive = the rest.
Outcome (select one): active, inactive

Example entries begin here.
compound | group
CCOC(=O)[C@H]1Nc2ccc(OC)cc2C2c3ccccc3CC21 (stereo partly specified) | inactive
CC(C)OC(=O)c1ccc(CCc2cc(O)c(Br)cc2O)cc1 | active
Cc1ccc2c3ccc4c(c3n(C)c2c1)C(=O)C=CC4=O | inactive
CCc1c(Cl)c(C)cc(O)c1Cl | inactive
O=c1c2ccccc2nc(-c2ccccc2)n1O | inactive

Status in this test for `Oc1ccc(SCc2ccc(NCc3ccccc3)cc2)cc1` ? inactive

Which outcome was assigned to CCOC(=O)COc1c(OC)cc(C2C3=C(COC3=O)Oc3cc4c(cc32)OCO4)cc1OC (stereo unspecified) in this test? inactive

Any idea what this test logged for `O=c1ccc2ccccc2c2ccccc12` ? inactive
